These entries and their values trace back to paper doi:10.64898/2025.12.15.694265.

# TESTED_SYSTEM: PPARγ (Homo sapiens, UniProt P37231)
# Sequence (P37231 223-505): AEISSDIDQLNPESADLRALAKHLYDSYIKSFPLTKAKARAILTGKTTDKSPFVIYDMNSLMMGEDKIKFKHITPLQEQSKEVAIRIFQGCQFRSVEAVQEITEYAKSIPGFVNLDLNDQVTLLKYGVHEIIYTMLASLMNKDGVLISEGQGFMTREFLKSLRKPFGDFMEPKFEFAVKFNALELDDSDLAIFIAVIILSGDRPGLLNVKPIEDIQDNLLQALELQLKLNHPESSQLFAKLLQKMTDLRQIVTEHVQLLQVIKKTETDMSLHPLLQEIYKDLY

{"TEST_SMILES": "N#Cc1c(C2CCCCC2)nc(Sc2ccc(C(F)(F)F)cc2[N+](=O)[O-])[nH]c1=O", "TESTED_SYSTEM": "PPARγ (Homo sapiens, UniProt P37231)", "IC50": "~5 µM"}
